system: Plasmodium falciparum; test: Antimalarial activity against chloroquine-resistant Plasmodium falciparum W2 infected in human erythrocytes assessed as parasite growth inhibition incubated for 48 hrs by geimsa staining based microscopy; assay type: functional, organism-based; details: W2, Erythrocyte
pIC50: −log10 of the molar value.
Reported values of pIC50 for individual entries
Measurement kind: pIC50

> print(dat)
                            compound.string  measurement.kind  measurement
1  CC(C)(O)c1cn(CCNC2=CC(=O)c3ccccc3C2=O)nn1             pIC50         5.18
2  Cc1ccc(-c2cn(CCNC3=CC(=O)c4ccccc4C3=O)nn2)cc1             pIC50         4.82
3  O=C1C=C(NCCn2cc(C3(O)CCCCC3)nn2)C(=O)c2ccccc21             pIC50         5.57
4  O=C1C=C(NCCn2cc(-c3ccccc3)nn2)C(=O)c2ccccc21             pIC50         6.09
5  COc1ccc(-c2cn(CCNC3=CC(=O)c4ccccc4C3=O)nn2)cc1             pIC50         5.38
